biological target: human 5-HT6 receptor (Homo sapiens, UniProt P50406); construct: host or cells: CHO-K1 cells, stably transfected; membranes prepared in house; test: Human 5-HT6 Receptor Binding Assay ([3H]LSD displacement, scintillation beads); settings: membranes of CHO-K1 cells with recombinant human 5-HT6, 4 nM [3H]LSD; Table 1, class symbols; read-out: h5-HT6 (Ki)
Sequence (P50406 whole entry): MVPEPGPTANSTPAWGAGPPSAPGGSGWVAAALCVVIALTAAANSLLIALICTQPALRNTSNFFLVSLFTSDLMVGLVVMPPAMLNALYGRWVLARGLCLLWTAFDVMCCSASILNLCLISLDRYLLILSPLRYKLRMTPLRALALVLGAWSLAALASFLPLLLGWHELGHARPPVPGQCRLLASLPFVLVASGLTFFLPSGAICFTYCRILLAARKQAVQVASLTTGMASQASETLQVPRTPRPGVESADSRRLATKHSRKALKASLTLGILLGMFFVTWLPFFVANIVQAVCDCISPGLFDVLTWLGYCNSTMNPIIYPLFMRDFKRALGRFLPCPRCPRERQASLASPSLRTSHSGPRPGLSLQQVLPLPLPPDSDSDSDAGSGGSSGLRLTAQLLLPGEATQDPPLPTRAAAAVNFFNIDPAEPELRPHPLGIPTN
Quantity measured: Ki

COCCOc1cccc(S(=O)(=O)c2ccc3c(c2)OC2CNCCC32)c1 (stereo not drawn) [Example 558]
500 to 1000 nM
COc1ccc(S(=O)(=O)c2ccc3c(c2)C2CCNCC2O3)cc1OC (stereo not drawn) [Example 171]
> 1000 nM
O=S(=O)(c1ccccc1)c1ccc2oc3c(c2c1)CCNC3 [Example 348]
< 500 nM
O=S(=O)(c1cncc(C(F)(F)F)c1)c1ccc2c(c1)OC1CNCCC21 (stereo not drawn) [Example 464]
< 500 nM

Prompt: Fill in the recorded Ki for this compound, with human 5-HT6 receptor (Homo sapiens, UniProt P50406) as test system: O=S(=O)(c1cccc(Cl)c1)c1ccc2c3c(oc2c1)C1CCCCN1CC3 (stereo not drawn) [Example 620]
Completion: < 500 nM

Prompt: Fill in the recorded Ki for this compound, with human 5-HT6 receptor (Homo sapiens, UniProt P50406) as test system: CC(C)C1NCCc2c1oc1ccc(S(=O)(=O)c3cccc(F)c3)cc21 (stereo not drawn) [Example 512]
Completion: < 500 nM

Prompt: Fill in the recorded Ki for this compound, with human 5-HT6 receptor (Homo sapiens, UniProt P50406) as test system: O=S(=O)(Cc1ccccc1)Oc1ccc2c(c1)OC1CNCCC21 (stereo not drawn) [Example 637]
Completion: > 1000 nM

Prompt: Fill in the recorded Ki for this compound, with human 5-HT6 receptor (Homo sapiens, UniProt P50406) as test system: O=S(=O)(c1cc(F)cc(F)c1)c1ccc2c3c([nH]c2c1)C1(CCCOC1)NCC3 (stereo not drawn) [Example 312]
Completion: < 500 nM

Prompt: Fill in the recorded Ki for this compound, with human 5-HT6 receptor (Homo sapiens, UniProt P50406) as test system: CC1(C)CNCc2oc3cc(S(=O)(=O)c4cc(F)cc(F)c4)ccc3c21 [Example 287]
Completion: < 500 nM

---

biological target: human 5-HT6 receptor (Homo sapiens, UniProt P50406); construct: host or cells: CHO-K1 cells, stably transfected; membranes prepared in house; experiment: Human 5-HT6 Receptor Binding Assay ([3H]LSD displacement, scintillation beads); conditions: membranes of CHO-K1 cells with recombinant human 5-HT6, 4 nM [3H]LSD; Table 1, class symbols; read-out: h5-HT6 (Ki)
Collected Ki values appear next to each entry.

In the examples that follow, each entry is paired with its recorded Ki.
COc1cncc(S(=O)(=O)c2ccc3c4c(oc3c2)C2(CCOC2)NCC4(C)C)c1 (centres unmarked)
< 500 nM
O=S(=O)(c1cccc(OCC(F)F)c1)c1ccc2c(c1)OC1CNCCC21 (centres unmarked)
< 500 nM
CC12CCNCC1Oc1ccc(OS(=O)(=O)c3cccc(Cl)c3)cc12 (centres unmarked)
> 1000 nM
O=S(=O)(Oc1ccc2c(c1)C1CCNCC1O2)c1csc2ccccc12 (centres unmarked) [Example 725]
< 500 nM

Consider now this further compound.
Prompt: GET /values?readout=Ki&item= O=S(=O)(c1ccc2c(c1)OC1CNCCC21)c1cccc2c1OC(F)(F)O2 (centres unmarked) [Example 469]
Completion: < 500 nM

---

Collected Ki values appear next to each entry.
Molecular target: human 5-HT6 receptor (Homo sapiens)
Construct: host or cells: CHO-K1 cells, stably transfected; membranes prepared in house
Assay: Human 5-HT6 Receptor Binding Assay ([3H]LSD displacement, scintillation beads)
Conditions: membranes of CHO-K1 cells with recombinant human 5-HT6, 4 nM [3H]LSD; Table 1, class symbols; read-out: h5-HT6 (Ki)
Method: Human 5-HT6 Receptor Binding Assay Membranes were prepared from CHO—K1 cells stably transfected with the human 5-HT6 receptor (Euroscreen; ES-316-C). […] The membranes were centrifuged at 40,000×g for 30 min at 4° C. and the pellets were resuspended in membrane buffer containing 250 mM sucrose, and protein concentration was determined using the Coomassie Plus kit (Pierce Biotechnology, Rockford, Ill.). […]
Counter-ions that a name gives are not always drawn.

Prompt: Fill in the recorded Ki for this compound, with human 5-HT6 receptor (Homo sapiens) as test system: COc1c(F)cc(F)cc1S(=O)(=O)c1ccc2c(c1)OC1CNCCC21 (stereo not drawn) [Example 458]
Completion: > 1000 nM

Prompt: Fill in the recorded Ki for this compound, with human 5-HT6 receptor (Homo sapiens) as test system: `Cc1ccc(F)cc1S(=O)(=O)c1ccc2c3c(oc2c1)CNCC3`
Completion: < 500 nM

Prompt: Fill in the recorded Ki for this compound, with human 5-HT6 receptor (Homo sapiens) as test system: CC(=O)Nc1ccc(S(=O)(=O)Oc2ccc3c(c2)C2CCNCC2O3)cc1 (stereo not drawn)
Completion: > 1000 nM

Prompt: Fill in the recorded Ki for this compound, with human 5-HT6 receptor (Homo sapiens) as test system: [O-][S+](c1ccc2c3c(oc2c1)CNCC3)c1cc(F)ccc1F (stereo not drawn)
Completion: < 500 nM

Prompt: Fill in the recorded Ki for this compound, with human 5-HT6 receptor (Homo sapiens) as test system: O=S(=O)(Nc1ccccc1Cl)c1ccc2c(c1)C1CCNCC1O2 (stereo not drawn)
Completion: > 1000 nM

Prompt: Fill in the recorded Ki for this compound, with human 5-HT6 receptor (Homo sapiens) as test system: O=S(=O)(c1ccc(-c2ccccc2)cc1)c1ccc2c(c1)OC1CNCCC21 (stereo not drawn)
Completion: > 1000 nM

Prompt: Fill in the recorded Ki for this compound, with human 5-HT6 receptor (Homo sapiens) as test system: O=S(=O)(c1cccc(Cl)c1)c1ccc2c(c1)C1CCNCC1O2 (stereo not drawn) [Example 294, trifluoroacetic acid salt]
Completion: < 500 nM

Prompt: Fill in the recorded Ki for this compound, with human 5-HT6 receptor (Homo sapiens) as test system: `Cn1ccc2cccc(S(=O)(=O)c3ccc4c5c(oc4c3)CNCC5)c21`
Completion: < 500 nM

Prompt: Fill in the recorded Ki for this compound, with human 5-HT6 receptor (Homo sapiens) as test system: O=S(=O)(c1cccc(OCc2cnccn2)c1)c1ccc2c(c1)OC1CNCCC21 (stereo not drawn)
Completion: < 500 nM

Prompt: Fill in the recorded Ki for this compound, with human 5-HT6 receptor (Homo sapiens) as test system: O=S(=O)(c1cncc(F)c1)c1ccc2c(c1)OC1CNCCC21 (stereo not drawn)
Completion: > 1000 nM

Prompt: Fill in the recorded Ki for this compound, with human 5-HT6 receptor (Homo sapiens) as test system: O=S(=O)(c1cccc(Cl)c1)c1ccc2c3c(oc2c1)C(CCC(F)(F)F)NCC3 (stereo not drawn)
Completion: < 500 nM

Prompt: Fill in the recorded Ki for this compound, with human 5-HT6 receptor (Homo sapiens) as test system: O=S(=O)(Nc1ccc2c(c1)C1CCNCC1O2)c1cccc2ccccc12 (stereo not drawn)
Completion: < 500 nM

---

target: human 5-HT6 receptor (Homo sapiens, UniProt P50406); construct: host or cells: CHO-K1 cells, stably transfected; membranes prepared in house; assay: Human 5-HT6 Receptor Binding Assay ([3H]LSD displacement, scintillation beads); conditions: membranes of CHO-K1 cells with recombinant human 5-HT6, 4 nM [3H]LSD; Table 1, class symbols; read-out: h5-HT6 (Ki)
Collected Ki values appear next to each entry.

In the examples that follow, each entry is paired with its recorded Ki.
CC1(C)NCCc2c1oc1cc(S(=O)(=O)c3cc(F)cc(F)c3)ccc21
< 500 nM
CC12CCNCC1Oc1ccc(OS(=O)(=O)c3ccccc3C(F)(F)F)cc12 (stereo not drawn)
> 1000 nM
CC(C)Oc1cccc(S(=O)(=O)c2ccc3c(c2)OC2CNCCC32)c1 (stereo not drawn) [Example 136]
< 500 nM

Prompt: GET /values?readout=Ki&item= `Cc1cc(S(=O)(=O)c2ccc3oc4c(c3c2)CCNC4)ccc1F`
Completion: < 500 nM

Prompt: GET /values?readout=Ki&item= [O-][S+](c1ccc2c3c(oc2c1)CNCC3)c1cccnc1Cl (stereo not drawn)
Completion: > 1000 nM

Prompt: GET /values?readout=Ki&item= `O=S(=O)(c1ccc2c(c1)OCCO2)c1ccc2oc3c(c2c1)CCNC3`
Completion: < 500 nM

Prompt: GET /values?readout=Ki&item= CC12CCNCC1Oc1ccc(OS(=O)(=O)c3csc4ccccc34)cc12 (stereo not drawn) [Example 772]
Completion: < 500 nM

Prompt: GET /values?readout=Ki&item= `O=S(=O)(c1ccc2oc3c(c2c1)CCNC3)c1ccccc1F`
Completion: < 500 nM

Prompt: GET /values?readout=Ki&item= COc1ccc(S(=O)(=O)c2ccc3c(c2)OC2CNCCC32)cc1OC (stereo not drawn)
Completion: > 1000 nM

Prompt: GET /values?readout=Ki&item= O=S(=O)(Oc1ccc2c(c1)OC1CNCCC21)c1ccccc1C(F)(F)F (stereo not drawn)
Completion: < 500 nM

Prompt: GET /values?readout=Ki&item= `O=S(=O)(c1ccc2oc3c(c2c1)CCNC3)c1cccnc1OCC(F)(F)F`
Completion: < 500 nM

Prompt: GET /values?readout=Ki&item= CC(C)COc1cc(F)cc(S(=O)(=O)c2ccc3c(c2)OC2CNCCC32)c1 (stereo not drawn) [Example 402]
Completion: < 500 nM
